target-system: SF9 affinity purified rat farnesyl protein transferase (Rattus norvegicus, UniProt Q02293+Q04631)
Construct: made in house; host or cells: Sf9 insect cells (baculovirus system inferred from b7)
Sequence (Q02293 whole entry, one chain of several): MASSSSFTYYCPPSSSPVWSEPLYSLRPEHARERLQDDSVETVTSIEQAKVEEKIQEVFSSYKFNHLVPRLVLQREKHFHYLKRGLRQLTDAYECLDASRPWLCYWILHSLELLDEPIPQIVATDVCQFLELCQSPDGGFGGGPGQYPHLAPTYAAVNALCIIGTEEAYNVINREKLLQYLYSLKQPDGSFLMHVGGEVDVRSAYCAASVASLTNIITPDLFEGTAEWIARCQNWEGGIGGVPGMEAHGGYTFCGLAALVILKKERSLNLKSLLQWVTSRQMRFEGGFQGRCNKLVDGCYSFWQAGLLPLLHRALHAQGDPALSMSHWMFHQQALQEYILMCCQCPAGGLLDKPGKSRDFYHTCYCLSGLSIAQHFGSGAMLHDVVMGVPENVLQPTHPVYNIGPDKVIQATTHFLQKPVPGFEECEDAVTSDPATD
method-summary: PFT inhibitory activity (radiolabeled farnesyl pyrophosphate, streptavidin bead assay)
Format: biochemical
setup-conditions: HEPES buffer pH 7.4, without 5 mM potassium phosphate; read-out: IC50 (μM) Hepes
assay-endpoint: IC50 (µM)

# substance-smiles, meas-value
records = [
    ("O=C(CN(Cc1ccc(OCc2ccccc2)cc1)C(=O)[C@H](Cc1c[nH]cn1)NC(=O)OCc1ccccc1)NCCc1ccccc1Cl", 10.6),
]

1: CC(C)(CNC(=O)CN(Cc1ccc(-c2ccccc2)cc1)C(=O)[C@H](Cc1c[nH]cn1)NC(=O)OCc1ccccc1)c1ccccc1
2: CC(C)(CNC(=O)CN(Cc1ccc(OCc2ccncc2)cc1)C(=O)[C@H](Cc1c[nH]cn1)NC(=O)OCc1ccccc1)c1ccccc1
Which item exceeds the other in IC50, 1 or 2 ? // respond with label for picked entry
1
(1: 0.48 µM, 2: 0.06 µM)
